Species on record: Ovis aries
Experiment: Concentration required to inhibit complement mediated hemolysis of sensitized sheep RBC
Type: functional, organism-based

[
  {
    "Structure String": "COc1cccc(C=O)c1",
    "IC50 / µM": 919
  }
]

---

Organism: Ovis aries
Experiment: The concentration required to inhibit complement mediated hemolysis of sensitized sheep RBC
Type: functional, organism-based
pIC50: −log10 of the molar value.
Below is a list of entries, each paired with its recorded pIC50 value.

[
  {
    "Compound": "O=C(O)c1cccc(Oc2ccccc2)c1 [M-PHENOXYBENZOIC ACID FOR CIS-ISOMER]",
    "pIC50": 2.85
  },
  {
    "Compound": "c1ccc(Oc2cccc(-c3nn[nH]n3)c2)cc1",
    "pIC50": 3.10
  },
  {
    "Compound": "CCOc1cccc(-c2nn[nH]n2)c1",
    "pIC50": 3.20
  },
  {
    "Compound": "C[C@H]1[C@H](C)CC[C@]2(C(=O)O)CC[C@]3(C)C(=CC[C@@H]4[C@@]5(C)CC[C@H](O)C(C)(C)[C@@H]5CC[C@]43C)[C@H]12",
    "pIC50": 4.26
  },
  {
    "Compound": "CC1(C)CC[C@]2(C(=O)O)CC[C@]3(C)C(=CC[C@@H]4[C@@]5(C)CC[C@H](O)C(C)(C)[C@@H]5CC[C@]43C)[C@@H]2C1",
    "pIC50": 4.12
  },
  {
    "Compound": "O=Cc1cccc(Oc2ccccc2)c1",
    "pIC50": 2.86
  },
  {
    "Compound": "COc1cccc(-c2nn[nH]n2)c1",
    "pIC50": 2.81
  },
  {
    "Compound": "CCOc1cccc(C=O)c1",
    "pIC50": 3.00
  }
]

Attribution: ChEMBL document CHEMBL1136673
